experiment-notes: Photophysical properties in solution and aggregate states (AIE effect)
Format: physicochemical
test-conditions: AN/water mixture with 99% water
measured-endpoint: Fluorescence quantum yield (ΦF), aggregated (%)
Give the quantity in %, number only.

input: Item under review: BrCCOc1ccc(C(=C(c2ccc(OCCBr)cc2)c2ccc(OCCBr)cc2)c2ccc(OCCBr)cc2)cc1 [TBEPE] . Reported Fluorescence quantum yield (ΦF), aggregated?
output: 18

* * *

experiment-notes: Photophysical properties in solution and aggregate states (AIE effect)
Assay type: physicochemical
measured-endpoint: Increase of fluorescent intensity at 476 nm, AN solution to AN-water (1:99) suspension (fold)
Write the number in fold without appending the unit.

input: May I ask what Increase of fluorescent intensity at 476 nm, AN solution to AN-water (1:99) suspension has been recorded for BrCCOc1ccc(C(=C(c2ccccc2)c2ccc(OCCBr)cc2)c2ccccc2)cc1 ?
output: 240
